What follows is a collection of IC50 values obtained with GSK-3β (Homo sapiens).
Sequence (P49841 whole entry): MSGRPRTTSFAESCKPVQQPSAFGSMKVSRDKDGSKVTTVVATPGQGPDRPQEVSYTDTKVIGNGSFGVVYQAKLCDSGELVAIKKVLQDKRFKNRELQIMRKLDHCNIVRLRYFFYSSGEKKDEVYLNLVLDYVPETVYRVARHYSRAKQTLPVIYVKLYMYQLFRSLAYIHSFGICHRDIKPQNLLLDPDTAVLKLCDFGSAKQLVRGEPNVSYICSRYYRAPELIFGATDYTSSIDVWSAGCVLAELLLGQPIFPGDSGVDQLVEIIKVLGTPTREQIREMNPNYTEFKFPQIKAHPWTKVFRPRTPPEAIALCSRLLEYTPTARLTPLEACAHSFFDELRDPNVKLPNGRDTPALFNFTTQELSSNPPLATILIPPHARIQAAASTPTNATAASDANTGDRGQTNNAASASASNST

Use these answered entries as a reference point.
>  <compound-smiles>
COc1ccc(-c2ocnc2C(=O)NCCCc2ccccn2)cc1F

>  <IC50>
< 2.5 nM

$$$$
>  <compound-smiles>
O=C(NCCCc1cnccn1)c1ncoc1-c1ccc(OC(F)(F)F)c(F)c1

>  <IC50>
4100 nM

$$$$
>  <compound-smiles>
COc1ccc(-c2ocnc2C(=O)NCCCc2cccnc2)cc1F

>  <IC50>
< 2.5 nM

$$$$

Lookup: GSK-3β (Homo sapiens) / IC50 / COc1ccc(-c2ocnc2C(=O)NCCCc2cnccn2)cc1F : value?
Found: < 2.5 nM

---

experiment-summary: neuropharmacokinetic study in mice
Assay type: in vivo, mouse
measurement-setup: C57BL/6, mouse, brain and plasma, po, 50 mg/kg
result-type: Kp uu
Format: numeric value only, no unit, no commentary.

Lookup: # get_value(readout='Kp uu', item= COc1ccc(-c2ocnc2C(=O)NCCCc2cccnc2)cc1F )
Found: 1.06

---

study-system: hERG (Homo sapiens)
Sequence (Q12809 whole entry): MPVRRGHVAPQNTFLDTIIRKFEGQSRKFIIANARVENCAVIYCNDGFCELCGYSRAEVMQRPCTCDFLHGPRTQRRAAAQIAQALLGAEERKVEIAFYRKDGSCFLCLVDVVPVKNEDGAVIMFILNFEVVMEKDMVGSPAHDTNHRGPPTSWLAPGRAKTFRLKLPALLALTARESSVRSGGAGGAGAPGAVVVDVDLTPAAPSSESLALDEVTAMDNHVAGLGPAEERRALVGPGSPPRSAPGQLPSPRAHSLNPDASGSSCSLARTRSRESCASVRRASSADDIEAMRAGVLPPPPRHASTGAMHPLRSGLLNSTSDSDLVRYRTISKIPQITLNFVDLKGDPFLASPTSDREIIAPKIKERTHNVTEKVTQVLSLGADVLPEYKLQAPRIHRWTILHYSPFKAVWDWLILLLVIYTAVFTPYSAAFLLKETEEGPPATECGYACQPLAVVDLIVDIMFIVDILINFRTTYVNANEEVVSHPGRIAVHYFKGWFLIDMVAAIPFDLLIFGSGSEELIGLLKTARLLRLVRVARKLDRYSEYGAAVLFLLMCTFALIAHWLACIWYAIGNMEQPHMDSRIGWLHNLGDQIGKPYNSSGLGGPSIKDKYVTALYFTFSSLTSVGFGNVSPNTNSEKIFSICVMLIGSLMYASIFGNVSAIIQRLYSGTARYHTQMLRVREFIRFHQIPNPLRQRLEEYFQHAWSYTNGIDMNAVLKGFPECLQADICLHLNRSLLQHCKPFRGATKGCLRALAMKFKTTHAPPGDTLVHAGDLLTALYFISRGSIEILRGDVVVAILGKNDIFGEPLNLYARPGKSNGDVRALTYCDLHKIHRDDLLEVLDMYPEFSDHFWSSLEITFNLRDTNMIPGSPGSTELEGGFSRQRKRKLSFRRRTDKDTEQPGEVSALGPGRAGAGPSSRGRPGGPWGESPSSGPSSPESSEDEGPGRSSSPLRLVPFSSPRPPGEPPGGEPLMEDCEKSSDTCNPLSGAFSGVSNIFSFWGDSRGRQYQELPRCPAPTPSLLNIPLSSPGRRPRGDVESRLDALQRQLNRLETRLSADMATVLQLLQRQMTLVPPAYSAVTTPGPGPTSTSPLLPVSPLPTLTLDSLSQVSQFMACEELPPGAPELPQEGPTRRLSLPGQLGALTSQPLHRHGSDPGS
experiment-summary: hERG assay
Recorded EC50 values for a group of compounds are listed next.

Lookup: hERG (Homo sapiens) / EC50 / COc1ccc(-c2ocnc2C(=O)NCCCc2cncc(F)c2)cc1I : value?
Found: 1.7 to 62.6 µM

Lookup: Same read-out for COc1ccc(-c2ocnc2C(=O)NCCCc2cnccn2)cc1F ?
Found: 1.7 to 62.6 µM

Lookup: Same read-out for COc1ccc(-c2ocnc2C(=O)NCCCc2cccnc2)cc1F ?
Found: 1.7 to 62.6 µM

---

study-system: UniProtKB Q9Y463
Sequence (Q9Y463 whole entry): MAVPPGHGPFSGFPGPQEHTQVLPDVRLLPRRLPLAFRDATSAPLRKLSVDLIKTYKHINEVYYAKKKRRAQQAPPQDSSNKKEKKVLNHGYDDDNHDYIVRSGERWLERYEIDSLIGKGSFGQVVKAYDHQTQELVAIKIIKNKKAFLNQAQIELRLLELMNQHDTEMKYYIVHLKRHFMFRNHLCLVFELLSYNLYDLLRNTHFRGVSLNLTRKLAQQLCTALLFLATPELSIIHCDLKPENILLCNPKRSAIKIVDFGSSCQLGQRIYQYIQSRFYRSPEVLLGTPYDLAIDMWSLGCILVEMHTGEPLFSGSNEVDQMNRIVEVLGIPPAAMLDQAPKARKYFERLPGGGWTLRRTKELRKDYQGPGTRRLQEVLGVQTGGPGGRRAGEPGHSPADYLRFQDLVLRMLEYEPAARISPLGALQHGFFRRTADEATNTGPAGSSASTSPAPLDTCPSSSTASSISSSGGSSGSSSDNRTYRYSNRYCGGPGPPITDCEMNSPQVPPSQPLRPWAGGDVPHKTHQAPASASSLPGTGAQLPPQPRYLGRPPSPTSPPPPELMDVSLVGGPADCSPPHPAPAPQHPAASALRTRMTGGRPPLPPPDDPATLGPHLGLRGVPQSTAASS
result-type: pKi
A value of pKi is the negative decimal logarithm of a concentration given in moles per litre.

Lookup: UniProtKB Q9Y463 / pKi / COc1ccc(-c2ocnc2C(=O)NCCCc2cnccn2)cc1F : value?
Found: 6.77
